tested on: KG-1 cell line (FGFR 1-fusion); experiment: Cancer cell line cell viability assay (Cell Titer-Glo), 72 hr; assay type: cell-based; conditions: Homo sapiens, KG-1, KG-1 cell line (FGFR1-fusion)
pIC50: −log10 of the molar value.
ENDPOINT LABEL: pIC50

Task item: Report value only: pIC50, KG-1 cell line (FGFR 1-fusion), C[C@@H](Oc1ccc2[nH]nc(-c3ccc(N4CCC(N)(CS(C)(=O)=O)CC4)nn3)c2c1)c1c(Cl)cncc1Cl [Example 386]
Reply: 6.70 to 7.30

Task item: Report value only: pIC50, KG-1 cell line (FGFR 1-fusion), CC[C@H](C)NC1(C)CN(c2ncc(-c3n[nH]c4cc(OC)c(O[C@H](C)c5c(Cl)cncc5Cl)cc34)cc2C#N)C1 [Example 144]
Reply: 6.70 to 7.30

Task item: Report value only: pIC50, KG-1 cell line (FGFR 1-fusion), COc1cc2[nH]nc(-c3cnc(N4CC(C)(NC(C)C)C4)nc3)c2cc1O[C@H](C)c1c(Cl)cncc1Cl [Example 82]
Reply: 7.30 to 10.00

Task item: Report value only: pIC50, KG-1 cell line (FGFR 1-fusion), CC[C@H](C)NC1(C)CN(c2ncc(-c3n[nH]c4ccc(O[C@H](C)c5c(Cl)cncc5Cl)cc34)cc2F)C1 [Example 141]
Reply: 6.70 to 7.30

Task item: Report value only: pIC50, KG-1 cell line (FGFR 1-fusion), C[C@@H](Oc1ccc2[nH]nc(-c3cnc(N4CC(C)(CS(C)(=O)=O)C4)c(F)c3)c2c1)c1c(Cl)cncc1Cl [Example 199]
Reply: 6.70 to 7.30

Task item: Report value only: pIC50, KG-1 cell line (FGFR 1-fusion), Cc1ncc(Cl)c([C@@H](C)Oc2ccc3[nH]nc(-c4ccc(N5CC(C)(N6CCOCC6)C5)nc4)c3c2)c1Cl [Example 77]
Reply: 6.00 to 6.70

Task item: Report value only: pIC50, KG-1 cell line (FGFR 1-fusion), COCC1(N)CN(c2ccc(-c3n[nH]c4ccc(O[C@H](C)c5c(Cl)cncc5Cl)cc34)nn2)C1 [Example 376]
Reply: 6.00 to 6.70

----------
test system: KG-1 cell line (FGFR 1-fusion); test: Cancer cell line cell viability assay (Cell Titer-Glo), 72 hr; assay type: cell-based; conditions: Homo sapiens, KG-1, KG-1 cell line (FGFR1-fusion)
Where a name gives a salt, the structure may show the parent alone.
Please respond with reported IC50 for every item in the list.

Task item: Report value only: IC50, KG-1 cell line (FGFR 1-fusion), COc1cc2[nH]nc(-c3cnc(N4CC(C)(C)C4)nc3)c2cc1O[C@H](C)c1c(Cl)cncc1Cl [Example 61]
Reply: 50 to 200 nM

Task item: Report value only: IC50, KG-1 cell line (FGFR 1-fusion), COc1cc2[nH]nc(-c3cnc(N4CC(C)(N(C)CC(C)C)C4)c(C#N)c3)c2cc1O[C@H](C)c1c(Cl)cncc1Cl [Example 343]
Reply: > 1000 nM

Task item: Report value only: IC50, KG-1 cell line (FGFR 1-fusion), COc1cc2[nH]nc(-c3cnc(N4CC(C)(NCCC(F)F)C4)c(C#N)c3)c2cc1O[C@H](C)c1c(Cl)cncc1Cl [Example 41]
Reply: 50 to 200 nM

Task item: Report value only: IC50, KG-1 cell line (FGFR 1-fusion), CCC1(NCC2CC2)CN(c2ncc(-c3n[nH]c4ccc(O[C@H](C)c5c(Cl)cncc5Cl)cc34)cc2F)C1 [Example 247, dihydrochloride]
Reply: 50 to 200 nM

Task item: Report value only: IC50, KG-1 cell line (FGFR 1-fusion), C[C@@H]1CN(C2(C)CN(c3ncc(-c4n[nH]c5ccc(O[C@H](C)c6c(Cl)cncc6Cl)cc45)cc3F)C2)CCO1 [Example 213]
Reply: 200 to 1000 nM

Task item: Report value only: IC50, KG-1 cell line (FGFR 1-fusion), C[C@@H](Oc1ccc2[nH]nc(-c3ccc(N4CC(C)(NCCO)C4)nc3)c2c1)c1c(Cl)cncc1Cl [Example 89]
Reply: 0.1 to 50 nM

Task item: Report value only: IC50, KG-1 cell line (FGFR 1-fusion), C[C@@H](Oc1ccc2[nH]nc(-c3cnc(N4CC(C)(N5CCS(=O)(=O)CC5)C4)c(C#N)c3)c2c1)c1c(Cl)cncc1Cl [Example 321]
Reply: 200 to 1000 nM

----------
biological target: FGFR3 (Homo sapiens, UniProt P22607); construct: made in house; host or cells: E. coli (BL21-derived), T7 phage; assay: Kinase binding assay (kinase-tagged T7 phage, affinity beads, qPCR), Kd; conditions: read-out: FGFR3 (Kd nM)
Sequence (P22607 23-806): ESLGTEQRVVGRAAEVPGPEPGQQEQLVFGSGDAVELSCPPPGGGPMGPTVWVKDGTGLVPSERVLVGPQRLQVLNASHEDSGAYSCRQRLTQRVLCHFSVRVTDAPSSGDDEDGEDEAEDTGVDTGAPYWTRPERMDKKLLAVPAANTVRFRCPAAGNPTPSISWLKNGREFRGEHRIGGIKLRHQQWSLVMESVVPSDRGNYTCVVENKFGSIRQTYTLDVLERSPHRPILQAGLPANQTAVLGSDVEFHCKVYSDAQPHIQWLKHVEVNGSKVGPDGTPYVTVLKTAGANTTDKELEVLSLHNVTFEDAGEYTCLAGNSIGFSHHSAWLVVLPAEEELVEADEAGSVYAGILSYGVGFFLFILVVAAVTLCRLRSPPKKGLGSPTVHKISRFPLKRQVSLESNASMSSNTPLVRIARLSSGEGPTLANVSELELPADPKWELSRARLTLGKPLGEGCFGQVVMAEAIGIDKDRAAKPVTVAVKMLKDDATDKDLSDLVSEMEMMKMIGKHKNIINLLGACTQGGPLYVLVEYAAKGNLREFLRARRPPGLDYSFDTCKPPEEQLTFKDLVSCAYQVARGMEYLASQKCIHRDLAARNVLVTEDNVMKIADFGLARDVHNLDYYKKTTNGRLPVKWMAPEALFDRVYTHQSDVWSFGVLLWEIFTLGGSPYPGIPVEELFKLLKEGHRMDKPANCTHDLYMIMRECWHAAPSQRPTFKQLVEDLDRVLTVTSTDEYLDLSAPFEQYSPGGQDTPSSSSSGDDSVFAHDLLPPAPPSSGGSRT
Please respond with reported Kd for every item in the list.

Task item: Hello, please tell me recorded Kd for this one: "C[C@@H](Oc1ccc2[nH]nc(-c3cnc(N4CC(C)(N(C)C)C4)nc3)c2c1)c1c(Cl)cncc1Cl"
Reply: 1 to 50 nM

Task item: Hello, please tell me recorded Kd for this one: "COc1cc2[nH]nc(-c3cnc(N4CC(C)(N5CCOCC5)C4)c(C#N)c3)c2cc1O[C@H](C)c1c(Cl)cncc1Cl"
Reply: 1 to 50 nM

Task item: Hello, please tell me recorded Kd for this one: "C[C@@H](Oc1ccc2[nH]nc(-c3ccc(N4CC(C)(NC5COC5)C4)nc3)c2c1)c1c(Cl)cncc1Cl"
Reply: 1 to 50 nM

Task item: Hello, please tell me recorded Kd for this one: "C[C@@H](Oc1ccc2[nH]nc(-c3cnc(N4CC(C)(NCCO)C4)c(C#N)c3)c2c1F)c1c(Cl)cncc1Cl"
Reply: > 1000 nM

----------
tested on: KG-1 cell line (FGFR 1-fusion); experiment: Cancer cell line cell viability assay (Cell Titer-Glo), 72 hr; format: cell-based; conditions: Homo sapiens, KG-1, KG-1 cell line (FGFR1-fusion)
Please respond with reported IC50 for every item in the list.

Task item: Hello, please tell me recorded IC50 for this one: "C[C@@H](Oc1ccc2[nH]nc(-c3cnc(N4CC(C)(N5CCOCC5)C4)c(F)c3)c2c1)c1c(Cl)cncc1Cl"
Reply: 50 to 200 nM

Task item: Hello, please tell me recorded IC50 for this one: "C[C@@H](Oc1ccc2[nH]nc(-c3cnc(N4CC(C)(NCCC#N)C4)c(F)c3)c2c1)c1c(Cl)cncc1Cl"
Reply: 50 to 200 nM

Task item: Hello, please tell me recorded IC50 for this one: "COc1cc2[nH]nc(-c3cnc(N4CC(C)(N[C@H]5CCOC5)C4)c(C#N)c3)c2cc1O[C@H](C)c1c(Cl)cncc1Cl"
Reply: 50 to 200 nM

Task item: Hello, please tell me recorded IC50 for this one: "CC(C)NC1(C)CN(c2ncc(-c3n[nH]c4cc(F)c(O[C@H](C)c5c(Cl)cncc5Cl)cc34)cc2F)C1"
Reply: 50 to 200 nM

Task item: Hello, please tell me recorded IC50 for this one: "C[C@@H](Oc1ccc2[nH]nc(-c3cnc(N4CC(C)(N(C)C)C4)nc3)c2c1)c1c(Cl)cncc1Cl"
Reply: 50 to 200 nM

Task item: Hello, please tell me recorded IC50 for this one: "COc1cc2[nH]nc(-c3cnc(N4CC(C)(N5C[C@H]6C[C@@H]5CO6)C4)c(C#N)c3)c2cc1O[C@H](C)c1c(Cl)cncc1Cl"
Reply: 50 to 200 nM

Task item: Hello, please tell me recorded IC50 for this one: "CNC1(C)CN(c2ccc(-c3n[nH]c4ccc(O[C@H](C)c5c(Cl)cnc(C)c5Cl)cc34)cn2)C1"
Reply: 50 to 200 nM

Task item: Hello, please tell me recorded IC50 for this one: "C[C@@H](Oc1ccc2[nH]nc(-c3cnc(N4CC(N)(CCC#N)C4)c(F)c3)c2c1)c1c(Cl)cncc1Cl"
Reply: 50 to 200 nM

Task item: Hello, please tell me recorded IC50 for this one: "C=CCC1(N)CN(c2ncc(-c3n[nH]c4ccc(O[C@H](C)c5c(Cl)cncc5Cl)cc34)cc2F)C1"
Reply: 50 to 200 nM

Task item: Hello, please tell me recorded IC50 for this one: "CCC1(NC)CN(c2ncc(-c3n[nH]c4cc(OC)c(O[C@H](C)c5c(Cl)cncc5Cl)cc34)cc2C#N)C1"
Reply: 0.1 to 50 nM

Task item: Hello, please tell me recorded IC50 for this one: "C[C@@H](Oc1ccc2[nH]nc(-c3ccc(N4C[C@@H](CS(C)(=O)=O)[C@@H]4C)nc3)c2c1)c1c(Cl)cncc1Cl"
Reply: 50 to 200 nM

Task item: Hello, please tell me recorded IC50 for this one: "C[C@@H](Oc1ccc2[nH]nc(-c3cnc(N4CC(C)(NCC5(O)CC5)C4)c(F)c3)c2c1)c1c(Cl)cncc1Cl"
Reply: 0.1 to 50 nM

Task item: Hello, please tell me recorded IC50 for this one: "C[C@@H](Oc1ccc2[nH]nc(-c3cnc(N4CC(C)(NCP(C)(C)=O)C4)c(F)c3)c2c1)c1c(Cl)cncc1Cl"
Reply: 200 to 1000 nM

Task item: Hello, please tell me recorded IC50 for this one: "COc1cc2[nH]nc(-c3cnc(N4CC(N)(CCS(C)(=O)=O)C4)c(C#N)c3)c2cc1O[C@H](C)c1c(Cl)cncc1Cl"
Reply: > 1000 nM

Task item: Hello, please tell me recorded IC50 for this one: "C[C@@H](Oc1ccc2[nH]nc(-c3cnc(N4CC(N)(CC5CC5)C4)c(F)c3)c2c1)c1c(Cl)cncc1Cl"
Reply: 50 to 200 nM

Task item: Hello, please tell me recorded IC50 for this one: "C[C@@H](Oc1ccc2[nH]nc(-c3cnc(N4CC(C)(O)C4)c(F)c3)c2c1)c1c(Cl)cncc1Cl"
Reply: 50 to 200 nM

Task item: Hello, please tell me recorded IC50 for this one: "COc1cc2[nH]nc(-c3cnc(N4CC(CC#N)(NCC5CC5)C4)c(C#N)c3)c2cc1O[C@H](C)c1c(Cl)cncc1Cl"
Reply: 50 to 200 nM

Task item: Hello, please tell me recorded IC50 for this one: "Cc1ncc(Cl)c([C@@H](C)Oc2ccc3[nH]nc(-c4ccc(N5CC(C)(NC6CCC6)C5)nc4)c3c2)c1Cl"
Reply: 200 to 1000 nM

Task item: Hello, please tell me recorded IC50 for this one: "C=CCNC1(C)CN(c2ccc(-c3n[nH]c4ccc(O[C@H](C)c5c(Cl)cncc5Cl)cc34)cn2)C1"
Reply: 50 to 200 nM

Task item: Hello, please tell me recorded IC50 for this one: "COc1cc2[nH]nc(-c3ccc(N4CC(C)(N[C@H]5CCOC5)C4)nc3)c2cc1O[C@H](C)c1c(Cl)cncc1Cl"
Reply: 0.1 to 50 nM

Task item: Hello, please tell me recorded IC50 for this one: "C[C@@H](Oc1ccc2[nH]nc(-c3cnc(N4CC(C)(N5CC(C)(C)C5)C4)c(F)c3)c2c1)c1c(Cl)cncc1Cl"
Reply: 50 to 200 nM

Task item: Hello, please tell me recorded IC50 for this one: "C[C@@H](Oc1ccc2[nH]nc(-c3ccc(N4CC(C)(NCC5CC5)C4)nc3)c2c1)c1c(Cl)cncc1Cl"
Reply: 0.1 to 50 nM

Task item: Hello, please tell me recorded IC50 for this one: "C[C@@H](Oc1ccc2[nH]nc(-c3cnc(N4CC(N)(CCF)C4)c(F)c3)c2c1)c1c(Cl)cncc1Cl"
Reply: 50 to 200 nM

Task item: Hello, please tell me recorded IC50 for this one: "COc1cc2[nH]nc(-c3cnc(N4CC(N)(CC(C)C)C4)c(C#N)c3)c2cc1O[C@H](C)c1c(Cl)cncc1Cl"
Reply: 50 to 200 nM

Task item: Hello, please tell me recorded IC50 for this one: "C[C@@H](Oc1ccc2[nH]nc(-c3ccc(N4CC(C)(NCC5CC5)C4)nn3)c2c1)c1c(Cl)cncc1Cl"
Reply: 50 to 200 nM

Task item: Hello, please tell me recorded IC50 for this one: "COc1cc2[nH]nc(-c3cnc(N4CC(C)(N5CC(C)(OC)C5)C4)c(C#N)c3)c2cc1O[C@H](C)c1c(Cl)cncc1Cl"
Reply: 50 to 200 nM

Task item: Hello, please tell me recorded IC50 for this one: "C[C@H](O)CNC1(C)CN(c2ncc(-c3n[nH]c4ccc(O[C@H](C)c5c(Cl)cncc5Cl)cc34)cc2F)C1"
Reply: 0.1 to 50 nM
